Parameter efflux ratio at 2 h, 10 μM: see the listing below.
test: MDCK permeability assay (efflux ratio); type: in vitro ADME, Canine; details: dog, MDCK-MDR1, pH 7.4, MDR-MDCK cells, 37° C., Papp(B-A)/Papp(A-B)
REPORTED PROPERTY: efflux ratio at 2 h, 10 μM

1) O=c1[nH]c2sc(CN3CCOCC3)cc2c2c(O)cccc12	3.1
2) Br.CN(C)Cc1cc2c([nH]c(=O)c3cccc(O)c32)s1	1.7
3) O=c1[nH]c2sc(CN3CCCCC3)cc2c2c(O)cccc12	10.4
4) O=c1[nH]c2sc(CN3CCSC3)cc2c2c(O)cccc12	0.8
5) O=c1[nH]c2sc(CN3CCC(Br)CC3)cc2c2c(O)cccc12	0.9
